Data credit: ChEMBL document CHEMBL5634140

measurementProtocol: AUC(0 to t) in Sprague-Dawley rat at 10 mg/kg, po measured upto 24 hrs by LC-MS/MS analysis
Assay type: ADME, organism-based
details: in vivo
# AUC(0-t) at 24 h annotations
Please state the value followed by its unit.

# input For the compound `NCCCNC(=O)c1ccc(COc2c(N)cc(Cl)cc2Cl)cc1` , give its measured AUC(0-t) at 24 h value.
# output 309 ng·h/mL

Lab note: next compound to report on.
# input For the compound `NCC(=O)Nc1cc(Cl)cc(Cl)c1OCc1ccc(C(=O)Nc2ccccc2N)cc1` , give its measured AUC(0-t) at 24 h value.
# output 1240 ng·h/mL
